test system: ATP; assay: switch fluorescence ratio, 500 uM ATP over buffer (Cy3 cluster intensity, sum of 5 cycles each) (fold (ratio)); higher = stronger signal-on switching upon ATP binding; sequences stand for … in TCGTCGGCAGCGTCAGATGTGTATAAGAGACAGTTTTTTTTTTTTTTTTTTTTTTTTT…TC; conditions: aptamer strand: ATP DNA aptamer (quencher-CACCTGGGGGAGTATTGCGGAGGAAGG + anchor), 100 nM annealed; ATP concentration: 500 uM;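 also: ATP exposure 15 min at 22 °C before imaging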
List of switch fluorescence ratio values.
Answer using only a numeral; do not append any unit.

These solved cases illustrate the format of a correct answer.
GGGTTATTGG = 0.991
GGGGGCATTG = 0.993
TGCATTCGTT = 1.01
TAGGATTGTA = 0.981

Would you kindly share the measured switch fluorescence ratio for TCGGGTCGTA ?
1.02

Entry to check: TAAGGGATAG
0.985

Next: GCTGTTCATG
0.993

# iterate: ATTCTCGTTA
0.996

Let us now turn to GAAAGGGGTC
1.01

---

Below, each entry is listed with its recorded switch fluorescence ratio.
tested on: ATP; experiment: switch fluorescence ratio, 500 uM ATP over buffer (Cy3 cluster intensity, sum of 5 cycles each) (fold (ratio)); higher = stronger signal-on switching upon ATP binding; sequences stand for … in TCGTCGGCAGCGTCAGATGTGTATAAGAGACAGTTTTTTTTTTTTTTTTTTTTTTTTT…TC; conditions: aptamer strand: ATP DNA aptamer (quencher-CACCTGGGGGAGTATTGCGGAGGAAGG + anchor), 100 nM annealed; ATP concentration: 500 uM;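 also: ATP exposure 15 min at 22 °C before imaging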
API note: the answer field is a bare number with no unit suffix.

AGAAAGGATG = 1.01
AGGTACGAGG = 1.01
TGTTATCAGC = 1
TTGATAGGGT = 1.01

// switching to the query sequence
Quick one: switch fluorescence ratio for TTGGCGACAT ?
1.02

---

test system: ATP; assay: switch fluorescence ratio, 500 uM ATP over buffer (Cy3 cluster intensity, sum of 5 cycles each) (fold (ratio)); higher = stronger signal-on switching upon ATP binding; sequences stand for … in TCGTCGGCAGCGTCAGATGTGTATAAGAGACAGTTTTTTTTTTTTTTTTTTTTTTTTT…TC; conditions: aptamer strand: ATP DNA aptamer (quencher-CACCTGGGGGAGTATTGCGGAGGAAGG + anchor), 100 nM annealed; ATP concentration: 500 uM;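 also: ATP exposure 15 min at 22 °C before imaging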
Parameter: switch fluorescence ratio
// no unit, no text: just the number

TCATGGTCGT = 0.982
GGGGGGGATA = 1
AATGCCCGGC = 1.02
ATTGGGGGAG = 0.987
GCCAATGGGC = 1

Here is another sequence to look at.
# input sequence: TTAAGTTTGG ; wanted: its switch fluorescence ratio
1.01

---

test system: ATP; assay: switch fluorescence ratio, 500 uM ATP over buffer (Cy3 cluster intensity, sum of 5 cycles each) (fold (ratio)); higher = stronger signal-on switching upon ATP binding; sequences stand for … in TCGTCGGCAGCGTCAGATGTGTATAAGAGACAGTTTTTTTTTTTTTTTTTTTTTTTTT…TC; conditions: aptamer strand: ATP DNA aptamer (quencher-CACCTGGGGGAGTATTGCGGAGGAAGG + anchor), 100 nM annealed; ATP concentration: 500 uM;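 also: ATP exposure 15 min at 22 °C before imaging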
# switch fluorescence ratio per entry

Examples from the recorded data:
CAAGCCGTGT = 1.02
CTGAATGC = 1.17

Next up:
Name the reported switch fluorescence ratio value associated with the sequence TATAGGTAAT
1.03
